Value source: patent US20260258115A1

Biological target: RSV F on recombinant mKate-RSV A2 virus (Respiratory syncytial virus A2, UniProt P03420 26-574)
Assay: cell-based or functional assay
Recorded Neut IC50 (ug/ml) subtype A values for a group of binders are listed next.

binder	Neut IC50 (ug/ml) subtype A / µg/mL
ADI-21084 (antibody, V domains shown) VH: EVQLVESGAEVKKPGASVTVSCKASGYTFTSNTISWLRQAPGQGLEWLGWVSASNGNTKYAQKFQGRVTMTTDTSATTAYMEVRTLRHDDTAIYYCARDILDMGGFHFDNWGQGTLVTVSS VL: SYVLTQPPSVSVAPGQTARITCGGNNIGNKHVHWYKQKPGQAPVLVVYDDSDRPSGIPERFSGSNSGNTATLTVSRVEAGDEADFYCQVWDNTNDHPVFGGGTKVTVL	0.14
ADI-21079 (antibody, V domains shown) VH: EVQLLESGGGLVKPGGSLRLSCAASGFTFSDYYMSWIRQAPGKGLEWVSNISGGSTYTNYADSVKGRFTISRDNAKNSLYLQMNSLRAEDTAVYYCAREAYGSGNYYNPNWLDPWGQGTLVTVSS VL: QSVLTQPPSVSGAPGQRVTISCTGSSSNIGAGYDVHWYQQLPGTAPKLLIYGNRNRPSGVPDRFSGSKSGTSASLAITGLQAEDEADYYCQSYDSSLSGSVFGGGTKLTVL	0.2
ADI-21075 (antibody, V domains shown, also called Ab 320) VH: EVQLVESGGGLVKPGGSLRLSCAASGFSFSNYYMSWVRQAPGKGLEWISYISGGSTYANLADSVKGRFTISRDNTKNSMYLQMTSLRPDDTAVYYCARIHGTHGPFYFDYWGQGTLVTVSS VL: QSVLTQPPSVSGAPGQRVTISCTGSSSNIGAGYDVHWYQQLPGTAPKLLIHANSNRPSGVPDRFSGSKSGTSASLAITGLQAEDEADYYCQSYDNSLNAYYVFGTGTKLTVL	0.03
